Measured pIC50 of individual entries
molecular target: protein kinase C; assay: Inhibition of protein kinase C in vitro (protein kinase-induced incorporation of 32P from [γ-32P]ATP into histone); conditions: concentration which reduces by 50% the protein kinase-induced incorporation of 32P from [γ-32P]ATP into histone
Where a name gives a salt, the structure may show the parent alone.
Units for pIC50: none; it is -log10 of a concentration expressed in mol/L.

Record excerpt, results attached:
# compound, pIC50
rows = [
    ("Cn1cc(C2=C(c3c4n(c5ccccc35)CC(CN)CC4)C(=O)NC2=O)c2ccccc21 (centres unmarked)", 7.82),
    ("Cn1cc(C2=C(c3c4n(c5ccccc35)CC(CSC(=N)N)CC4)C(=O)NC2=O)c2ccccc21 (centres unmarked) [methanesulfonate]", 8.00),
    ("Cn1cc(C2=C(c3c4n(c5ccccc35)CCC(C(=N)N)C4)C(=O)NC2=O)c2ccccc21 (centres unmarked) [hydrochloride]", 7.22),
    ("Cn1cc(C2=C(c3c4n(c5ccccc35)CC(CCN)CC4)C(=O)NC2=O)c2ccccc21 (centres unmarked) [hydrochloride]", 7.70),
    ("CN(C)CC1Cc2c(C3=C(c4cn(C)c5ccccc45)C(=O)NC3=O)c3ccccc3n2C1 (centres unmarked)", 7.70),
]

Known value: protein kinase C pIC50 of the compound Cn1cc(C2=C(c3c4n(c5ccccc35)CCC(CN)C4)C(=O)NC2=O)c2ccccc21 (centres unmarked) [hydrochloride] equals 8.10

Record Cn1cc(C2=C(c3c4n(c5ccccc35)CCC(CN3CCCCC3)C4)C(=O)NC2=O)c2ccccc21 (centres unmarked) has protein kinase C pIC50 equal to 7.52

# Cn1cc(C2=C(c3c4n(c5ccccc35)CCN(C(=O)CN)C4)C(=O)NC2=O)c2ccccc21 [hydrochloride] with protein kinase C: pIC50 is 7.30
